Target: BaDHPS (Bacillus anthracis, UniProt Q81VW8)
Sequence (Q81VW8 1-280): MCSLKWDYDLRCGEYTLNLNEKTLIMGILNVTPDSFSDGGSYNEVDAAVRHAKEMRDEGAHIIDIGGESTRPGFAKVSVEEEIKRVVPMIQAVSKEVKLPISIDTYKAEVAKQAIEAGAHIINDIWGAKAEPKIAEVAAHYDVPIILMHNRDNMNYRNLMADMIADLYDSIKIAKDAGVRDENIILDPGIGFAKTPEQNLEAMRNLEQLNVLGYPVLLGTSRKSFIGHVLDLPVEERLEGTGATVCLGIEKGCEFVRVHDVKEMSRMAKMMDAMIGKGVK
Assay: biochemical
Format: binding
Details: read-out: SPR KD
pKd: −log10 of the molar value.
experimentalEndpoint: pKd

smilesCode	targetUnderTest	observedMeasurement
Nc1nc2[nH]nc(CCC(=O)O)c(=O)c2c(=O)[nH]1	BaDHPS (Bacillus anthracis, UniProt Q81VW8)	6.15
